Just for reference, patent US5334595A is where these values come from.

tested on: P388 murine leukemia cells; assay: In vitro cytotoxicity, continuous (48-hour) exposure of P388 cells; type: cell-based; details: Mus musculus; P388, continuous exposure (48-hour); read-out: in vitro cytotoxicity IC50, cont. exp.
pIC50: −log10 of the molar value.
So basically: pIC50 at 6 or higher? That is y. Lower than 6? That is n.

Cc1cc(-c2c(F)cc3c4nn(-c5ccc(O)cc5)c(=O)c-4cn(C4CC4)c3c2F)cc(C)n1    n
COc1ccccc1-n1nc2c3cc(F)c(-c4cc(C)nc(C)c4)c(F)c3n(C3CC3)cc-2c1=O    y

Now look at this entry.
Query: Assess whether reported pIC50 for Cc1cc(-c2c(F)cc3c4nn(CCNC(C)(CO)CO)c(=O)c-4cn(C4CC4)c3c2F)cc(C)n1 sits at 6 or higher.
Result: n
